Reported melting point values for the following molecules.

Example molecules with recorded melting point:
| molecule | melting point |
| --- | --- |
| CCCCc1[nH]c(=O)c(C#N)cc1C(C)=O | 195 to 197 °C |
| CCCc1ccc(-c2ccc(=O)[nH]n2)cc1 | 180 to 182 °C |
| O=C1c2cc(OCc3ccccc3)ccc2OCCC1Oc1ccccc1 (configuration not stated) | 112 to 114 °C |
| O=P(ONc1ccccc1)(ONc1ccccc1)Oc1ccccc1 | 176 to 178 °C |
| Cc1c(C2CCN(Cc3ccccc3)CC2)n[nH]c1-c1ccc(Cl)cc1 | 188 to 190 °C |

Exercise: Param item = `COC(=O)c1cccc(-c2nc(COc3ccc(CO)cc3)c(C)o2)c1` ; retrieve measured melting point.
Key: 105 to 106 °C

Exercise: Param item = CC1c2ccccc2C=Cn2c1n[nH]c2=O (configuration not stated) ; retrieve measured melting point.
Key: 119 to 120 °C

Exercise: Param item = Cc1ccc(S(=O)(=O)OCC2COc3ccc(N)c(N)c3O2)cc1 (configuration not stated) ; retrieve measured melting point.
Key: 178 to 180 °C

Exercise: Param item = `CCN(CC)C(=O)C(C)(C)Oc1ccc(-c2ccc(N3CCCCC3)cc2)cc1` ; retrieve measured melting point.
Key: 100 to 102 °C
